# Test system: A. baumannii (ATCC 19606)
# Assay type: cell-based
# Experimental Setup: ATCC 19606
Positions of bridges follow the written chain, without caps; N, C: chain ends. Non-standard residues stand in square brackets, D forms with d. Residues, ends and D or L forms follow the SMILES beside them. *: point of attachment. Phenylthio(4-OPh) = c1ccc(Oc2ccc(S*)cc2)cc1; S(2-cyclohexylethyl) = C1CCC(CCS*)CC1; Dab = NCC[C@H](N)C(=O)O; X1 = CC(C)CCCCS*
Measured MIC A. baumannii (ATCC 19606) accompanies every entry in the list below.
The answer is to be given in µg/mL; state only the numeric part.

The examples below pair each entry with its known result.
Note to self: MIC A. baumannii (ATCC 19606) recorded for CC(C)C[C@@H]1NC(=O)[C@@H](Cc2ccccc2)NC(=O)[C@H](CCN)NC(=O)[C@@H](NC(=O)[C@H](CCN)NC(=O)[C@@H](NC(=O)[C@H](CSSCCC2CCCCC2)NC(=O)CN)[C@@H](C)O)CCNC(=O)[C@H]([C@@H](C)O)NC(=O)[C@H](CCN)NC(=O)[C@H](CCN)NC1=O [Compound 23a] (H-GC(S(2-cyclohexylethyl))T[Dab][Dab][Dab][dF]L[Dab][Dab]T; lactam 5-C) was 1

Note to self: MIC A. baumannii (ATCC 19606) recorded for CC(C)C[C@@H]1NC(=O)[C@@H](Cc2ccccc2)NC(=O)[C@H](CCN)NC(=O)[C@@H](NC(=O)[C@H](CCN)NC(=O)[C@@H](NC(=O)[C@H](CSSc2ccc(Oc3ccccc3)cc2)NC(=O)CN)[C@@H](C)O)CCNC(=O)[C@H]([C@@H](C)O)NC(=O)[C@H](CCN)NC(=O)[C@H](CCN)NC1=O [Compound 32a] (H-GC(Phenylthio(4-OPh))T[Dab][Dab][Dab][dF]L[Dab][Dab]T; lactam 5-C) was 32

Field: next compound
Note to self: MIC A. baumannii (ATCC 19606) recorded for CC(C)CCCCSSC[C@H](NC(=O)CN)C(=O)N[C@H](C(=O)N[C@@H](CCN)C(=O)N[C@H]1CCNC(=O)[C@H]([C@@H](C)O)NC(=O)[C@H](CCN)NC(=O)[C@H](CCN)NC(=O)[C@H](CC(C)C)NC(=O)[C@@H](Cc2ccccc2)NC(=O)[C@H](CCN)NC1=O)[C@@H](C)O [Compound 24a] (H-GC(X1)T[Dab][Dab][Dab][dF]L[Dab][Dab]T; lactam 5-C) was 1

----------
Measured MIC P. aeruginosa (ATCC 27853) accompanies every entry in the list below.
# System: P. aeruginosa (ATCC 27853)
# Assay type: cell-based
# Experimental Setup: ATCC 27853
Positions of bridges follow the written chain, without caps; N, C: chain ends. Non-standard residues stand in square brackets, D forms with d. Residues, ends and D or L forms follow the SMILES beside them. *: point of attachment. Phenylthio(4-OPh) = c1ccc(Oc2ccc(S*)cc2)cc1; S(2-cyclohexylethyl) = C1CCC(CCS*)CC1; Dab = NCC[C@H](N)C(=O)O; X4 = CCCCCCS*
The answer is to be given in µg/mL; state only the numeric part.

The examples below pair each entry with its known result.
Lab note: molecule CC(C)C[C@@H]1NC(=O)[C@@H](Cc2ccccc2)NC(=O)[C@H](CCN)NC(=O)[C@@H](NC(=O)[C@H](CCN)NC(=O)[C@@H](NC(=O)[C@H](N)CSSCCC2CCCCC2)[C@@H](C)O)CCNC(=O)[C@H]([C@@H](C)O)NC(=O)[C@H](CCN)NC(=O)[C@H](CCN)NC1=O [Compound 19b] (H-[dC](S(2-cyclohexylethyl))T[Dab][Dab][Dab][dF]L[Dab][Dab]T; lactam 4-C) tested on P. aeruginosa (ATCC 27853); recorded MIC P. aeruginosa (ATCC 27853) was 2

Lab note: molecule CCCCCCSSC[C@H](N)C(=O)N[C@H](C(=O)N[C@@H](CCN)C(=O)N[C@H]1CCNC(=O)[C@H]([C@@H](C)O)NC(=O)[C@H](CCN)NC(=O)[C@H](CCN)NC(=O)[C@H](CC(C)C)NC(=O)[C@@H](Cc2ccccc2)NC(=O)[C@H](CCN)NC1=O)[C@@H](C)O [Compound 17a] (H-C(X4)T[Dab][Dab][Dab][dF]L[Dab][Dab]T; lactam 4-C) tested on P. aeruginosa (ATCC 27853); recorded MIC P. aeruginosa (ATCC 27853) was 2

Lab note: molecule CCCCCCSSC[C@@H](N)C(=O)N[C@H](C(=O)N[C@@H](CCN)C(=O)N[C@H]1CCNC(=O)[C@H]([C@@H](C)O)NC(=O)[C@H](CCN)NC(=O)[C@H](CCN)NC(=O)[C@H](CC(C)C)NC(=O)[C@@H](Cc2ccccc2)NC(=O)[C@H](CCN)NC1=O)[C@@H](C)O [Compound 17b] (H-[dC](X4)T[Dab][Dab][Dab][dF]L[Dab][Dab]T; lactam 4-C) tested on P. aeruginosa (ATCC 27853); recorded MIC P. aeruginosa (ATCC 27853) was 2

Field: next molecule
Lab note: molecule CC(C)C[C@@H]1NC(=O)[C@@H](Cc2ccccc2)NC(=O)[C@H](CCN)NC(=O)[C@@H](NC(=O)[C@H](CCN)NC(=O)[C@@H](NC(=O)[C@H](CSSc2ccc(Oc3ccccc3)cc2)NC(=O)CN)[C@@H](C)O)CCNC(=O)[C@H]([C@@H](C)O)NC(=O)[C@H](CCN)NC(=O)[C@H](CCN)NC1=O [Compound 32a] (H-GC(Phenylthio(4-OPh))T[Dab][Dab][Dab][dF]L[Dab][Dab]T; lactam 5-C) tested on P. aeruginosa (ATCC 27853); recorded MIC P. aeruginosa (ATCC 27853) was 8

----------
Measured MIC P. aeruginosa (ATCC 27853) accompanies every entry in the list below.
# System: P. aeruginosa (ATCC 27853)
# Type: cell-based
# Experimental Setup: ATCC 27853
Positions of bridges follow the written chain, without caps; N, C: chain ends. Non-standard residues stand in square brackets, D forms with d. Residues, ends and D or L forms follow the SMILES beside them. *: point of attachment. X3 = c1ccc(Oc2ccc(CS*)cc2)cc1; X5 = c1ccc(-c2ccc(CS*)cc2)cc1; X6 = c1ccc(-c2ccc(S*)cc2)cc1; Dab = NCC[C@H](N)C(=O)O
The answer is to be given in µg/mL; state only the numeric part.

Note to self: MIC P. aeruginosa (ATCC 27853) recorded for CC(C)C[C@@H]1NC(=O)[C@@H](Cc2ccccc2)NC(=O)[C@H](CCN)NC(=O)[C@@H](NC(=O)[C@H](CCN)NC(=O)[C@@H](NC(=O)[C@H](N)CSSCc2ccc(Oc3ccccc3)cc2)[C@@H](C)O)CCNC(=O)[C@H]([C@@H](C)O)NC(=O)[C@H](CCN)NC(=O)[C@H](CCN)NC1=O [Compound 37] (H-[dC](X3)T[Dab][Dab][Dab][dF]L[Dab][Dab]T; lactam 4-C) was 4

Note to self: MIC P. aeruginosa (ATCC 27853) recorded for CC(C)C[C@@H]1NC(=O)[C@@H](Cc2ccccc2)NC(=O)[C@H](CCN)NC(=O)[C@@H](NC(=O)[C@H](CCN)NC(=O)[C@@H](NC(=O)[C@H](N)CSSCc2ccc(-c3ccccc3)cc2)[C@@H](C)O)CCNC(=O)[C@H]([C@@H](C)O)NC(=O)[C@H](CCN)NC(=O)[C@H](CCN)NC1=O [Compound 36] (H-[dC](X5)T[Dab][Dab][Dab][dF]L[Dab][Dab]T; lactam 4-C) was 2

Field: next molecule
Note to self: MIC P. aeruginosa (ATCC 27853) recorded for CC(C)C[C@@H]1NC(=O)[C@@H](Cc2ccccc2)NC(=O)[C@H](CCN)NC(=O)[C@@H](NC(=O)[C@H](CCN)NC(=O)[C@@H](NC(=O)[C@@H](CSSc2ccc(-c3ccccc3)cc2)NC(=O)CN)[C@@H](C)O)CCNC(=O)[C@H]([C@@H](C)O)NC(=O)[C@H](CCN)NC(=O)[C@H](CCN)NC1=O [Compound 31b] (H-G[dC](X6)T[Dab][Dab][Dab][dF]L[Dab][Dab]T; lactam 5-C) was 8

----------
# Tested on: differentiated conditionally immortalized PTECs (ciPTECs, OAT-1)
# Method Description: ciPTEC toxicity assay (PrestoBlue)
# Type: cell-based, human
Positions of bridges follow the written chain, without caps; N, C: chain ends. Non-standard residues stand in square brackets, D forms with d. Residues, ends and D or L forms follow the SMILES beside them. *: point of attachment. X5 = c1ccc(-c2ccc(CS*)cc2)cc1; Dab = NCC[C@H](N)C(=O)O; X1 = CC(C)CCCCS*; X4 = CCCCCCS*
Measured ciPTEC Toxicity Index (relative to polymyxin B) accompanies every entry in the list below.
Lab note: record just the number, no unit beside it.

Note to self: ciPTEC Toxicity Index (relative to polymyxin B) recorded for CC(C)C[C@@H]1NC(=O)[C@@H](Cc2ccccc2)NC(=O)[C@H](CCN)NC(=O)[C@@H](NC(=O)[C@H](CCN)NC(=O)[C@@H](NC(=O)[C@H](N)CSSCc2ccc(-c3ccccc3)cc2)[C@@H](C)O)CCNC(=O)[C@H]([C@@H](C)O)NC(=O)[C@H](CCN)NC(=O)[C@H](CCN)NC1=O [Compound 36] (H-[dC](X5)T[Dab][Dab][Dab][dF]L[Dab][Dab]T; lactam 4-C) was 1.7

Note to self: ciPTEC Toxicity Index (relative to polymyxin B) recorded for CCCCCCSSC[C@@H](NC(=O)CN)C(=O)N[C@H](C(=O)N[C@@H](CCN)C(=O)N[C@H]1CCNC(=O)[C@H]([C@@H](C)O)NC(=O)[C@H](CCN)NC(=O)[C@H](CCN)NC(=O)[C@H](CC(C)C)NC(=O)[C@@H](Cc2ccccc2)NC(=O)[C@H](CCN)NC1=O)[C@@H](C)O [Compound 21b] (H-G[dC](X4)T[Dab][Dab][Dab][dF]L[Dab][Dab]T; lactam 5-C) was 4.4

Note to self: ciPTEC Toxicity Index (relative to polymyxin B) recorded for CC(C)CCCCSSC[C@H](NC(=O)CN)C(=O)N[C@H](C(=O)N[C@@H](CCN)C(=O)N[C@H]1CCNC(=O)[C@H]([C@@H](C)O)NC(=O)[C@H](CCN)NC(=O)[C@H](CCN)NC(=O)[C@H](CC(C)C)NC(=O)[C@@H](Cc2ccccc2)NC(=O)[C@H](CCN)NC1=O)[C@@H](C)O [Compound 24a] (H-GC(X1)T[Dab][Dab][Dab][dF]L[Dab][Dab]T; lactam 5-C) was 8.0

Data provenance is paper PMC9743094.
